The reported numbers originate from patent US20230406829A1.

Listed compounds paired with reported pIC50
Biological target: recombinant human VISTA protein (Homo sapiens)
Sequence (Q9H7M9 with tags, fused parts or gaps limits assumed): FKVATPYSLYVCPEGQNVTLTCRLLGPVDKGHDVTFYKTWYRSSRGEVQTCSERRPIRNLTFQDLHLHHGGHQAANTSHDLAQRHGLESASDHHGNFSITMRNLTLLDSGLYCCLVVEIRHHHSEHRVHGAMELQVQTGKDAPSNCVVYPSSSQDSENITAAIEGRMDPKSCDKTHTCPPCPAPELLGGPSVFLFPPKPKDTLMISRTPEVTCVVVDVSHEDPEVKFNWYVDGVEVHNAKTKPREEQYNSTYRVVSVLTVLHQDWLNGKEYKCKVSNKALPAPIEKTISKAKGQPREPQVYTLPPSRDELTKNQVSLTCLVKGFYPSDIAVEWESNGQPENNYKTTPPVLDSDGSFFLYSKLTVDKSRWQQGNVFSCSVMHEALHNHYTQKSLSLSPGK
Test: Inhibition of VISTA interaction: rescue of IFN-γ release in human PBMC (ELISA)
Conditions: 72 h, read-out: IC50 (VISTA interaction inhibitory activity)
pIC50: −log10 of the molar value.

Recorded results for 5 compounds are shown here.
CC(=O)NCCNCc1cccc(-c2nc3c(C(F)(F)F)c(-c4ccccc4)ccc3[nH]2)c1	6.00 to 7.00
COc1ccc2[nH]c(-c3cccc(CNCCNC(C)=O)c3)nc2c1	6.00 to 7.00
CC(=O)NCCNCc1ccc(-c2cn3c(C)c(-c4ccccc4)ccc3n2)cc1	6.00 to 7.00
CC(=O)NCCNCc1cccc(-c2nc3cc(C#N)ccc3[nH]2)c1	7.00 to 9.00
Cc1c(-c2ccccc2)ccc2[nH]c(-c3cccc(CNC[C@@H](O)CC(=O)O)c3)nc12	7.00 to 9.00

pIC50 in this record for Cc1c(-c2ccccc2)ccc2[nH]c(-c3ccc(CN4CCCC[C@H]4C(=O)O)cc3)nc12 : 7.00 to 9.00

For this compound ( CCc1c(-c2ccccc2)ccc2[nH]c(-c3cccc(CNCCNC(C)=O)c3)nc12 ), measured pIC50 is 7.00 to 9.00

// CC(=O)NCCNCc1cccc(-c2nc3c(F)c(-c4ccccc4)ccc3[nH]2)c1 : pIC50 value = 7.00 to 9.00

response.value for CC(=O)NCCNCc1cccc(C2=CC3C=CC(c4ccccc4)=NC3O2)c1 (centres unmarked) (field: pIC50) = 6.00 to 7.00

# pIC50 of Cc1c(-c2ccccc2)ccc2[nH]c(-c3cccc(CN4CC[C@@H](O)C4)c3)nc12 = 6.00 to 7.00
